growth inhibition by entry:
# testDetails: NCI Yeast Anticancer Drug Screen. Data for the mec2-1 strain (AID 157)
# measurementContext: S. cerevisiae mec2-1 strain, at 50.0 µM, active compounds read high
About 79,000 compounds went through this panel and 15% of them were active in at least one assay; those are over-represented in the sample as a whole.
Quick note: give the figure in %, leave out the unit.

Here's what some known entries look like.
Provide one value: measured growth inhibition of `COC(=O)C1=C(C(=O)OC)SC(=C2c3ccsc3-c3sccc32)S1`
-6.2

Provide one value: measured growth inhibition of `CCOC(CN=C=S)OCC`
-3.95

Provide one value: measured growth inhibition of `Cc1ccc(CC(=S)N2CCOCC2)cc1`
24.2

Provide one value: measured growth inhibition of `O=C(CN1CCN(Cc2ccccc2)CC1)N1CCCn2c1nc1ccccc1c2=O`
-16.6

Provide one value: measured growth inhibition of `Nc1ccc(O)c(N)c1`
23.5

Provide one value: measured growth inhibition of `CC(C)(C)NNC(=O)/C(=C/c1ccc([N+](=O)[O-])cc1)NC(=O)c1ccccc1`
-17.3

Below: the item to evaluate.
Provide one value: measured growth inhibition of `O=S(=O)(O)CO`
4.6
